- experimental-target: T1, biotinylated CD3 epsilon:delta heterodimer protein (Amsbio AMS.CDD-H52WO) (Homo sapiens (Human), UniProt P07766 23-126; P04234 22-105)
- T1 construct: also called CD3 heterodimer
- assay-explanation: BLI (Octet), CD3 on SA sensor, Fab analyte;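 also: biolayer interferometry with biotinylated CD3 epsilon:delta captured on streptavidin sensors, Fab analyte at several concentrations up to 300 nM, 100 s association then 300 s dissociation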
Please go through the items and note down their log10 koff.
Heads up, the numbers here are log10 of koff in s⁻¹ units.

Some binders with known log10 koff results, for comparison:
huSP34.10.5 Fab-HF (Fab, V domains shown, also called HC10+LC5) VH: EVQLVESGGGLVQPGGSLRLSCAASGFTFSDYAMNWVRQAPGKGLEWVGRTRSKYNSYATYYAASVKGRFTISRDDSKNSLYLQMNSLKTEDTAVYYCVRHGNFGHSYVSWFAVWGQGTLVTVSS VL: QAVVTQEPSLTVSPGGTVTLTCGSSTGAVTTGHYANWVQQKPGQAPRGLIGGTSNRAPWTPARFSGSLLGGKAALTLSGAQPEDEAEYYCALWYSARWVFGGGTKLTVL :: -1.08
huSP34.3.2 Fab-HF (Fab, V domains shown, also called HC3+LC2) VH: EVQLVESGGGLVQPGGSLRLSCAASGFTFNTYAMNWVRQAPGKGLEWVGRIRSKYNNYATYYADSVKGRFTISRDDSKNSLYLQMNSLRTEDTAVYYCVRHGNFGHSYVSWFAYWGQGTLVTVSS VL: QAVVTQEPSLTVSPGGTVTLTCGSSTGAVTTSNYANWVQQKPGQAPRGLIGGTSNRAPWTPARFSGSLLGGKAALTLSGAQPEDEAEYYCALWYSNLWVFGGGTKLTVL :: -2.02
huSP34.7.6 Fab-HF (Fab, V domains shown, also called HC7+LC6) VH: EVQLVESGGGLVQPGGSLRLSCAASGFTFSDYAMNWVRQAPGKGLEWVGRTRSKYNNYATYYAASVKGRFTISRDDSKNSLYLQMNSLKTEDTAVYYCVRHGNFGNSYVSWFAVWGQGTLVTVSS VL: QAVVTQPPSLTVSPGGTVTLTCGSSTGAVTTGHYANWVQQKPGQAPRGLIGGTSNRAPGVPARFSGSLSGGKAALTISGAQPEDEAEYYCALWYSARWVFGGGTKLTVL :: -0.77
huSP34.2.5 Fab-HF (Fab, V domains shown, also called HC2+LC5) VH: EVQLVESGGGLVQPGGSLRLSCAASGFTFSTYAMNWVRQAPGKGLEWVGRIRSKYNNYATYYAASVKGRFTISRDDSKNSLYLQMNSLKTEDTAMYYCVRHGNFGNSYVSWFAVWGQGTLVTVSS VL: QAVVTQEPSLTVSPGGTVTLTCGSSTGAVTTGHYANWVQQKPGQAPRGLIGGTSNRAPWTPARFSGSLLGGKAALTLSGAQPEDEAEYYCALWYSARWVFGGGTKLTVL :: -1.39

We next turn to a different binder, shown below.
Measured log10 koff of huSP34.2.6 Fab-HF (Fab, V domains shown, also called HC2+LC6) VH: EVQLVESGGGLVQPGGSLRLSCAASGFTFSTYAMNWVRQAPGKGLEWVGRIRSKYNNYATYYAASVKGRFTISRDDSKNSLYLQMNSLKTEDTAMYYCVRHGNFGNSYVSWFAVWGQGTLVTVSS VL: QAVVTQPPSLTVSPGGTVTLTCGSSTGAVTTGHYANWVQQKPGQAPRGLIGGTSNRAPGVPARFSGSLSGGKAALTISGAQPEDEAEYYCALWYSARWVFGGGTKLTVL : -1.97

Hello, the source for this data is patent US20230056252A1, in case you need it.
